These measurements were taken from PubChem BioAssay (NCATS).

System: CP291
Assay: qHTS profiling for inhibitors of Plasmodium falciparum proliferation (AID 504749); note: nearly all actives have a fitted effect of over 60% in size
Conditions: P. falciparum in erythrocytes, SYBR Green DNA, 72 h; series mostly up to 28.7 µM
Results filed as inconclusive are left out. Active and inactive are the calls of the source. Calls come from the whole dose curve; as a rule, active = well fitted inhibition curve with a large enough effect; inconclusive = small, poorly fitted or top-dose-only effect; inactive = flat fitted curve, though single readings scatter.
Outcomes you can answer with include only these: active, inactive

Returns: the outcome recorded for Cc1ccccc1OCC(O)CNCCOc1ccc(C(N)=O)cc1 (stereo not given) in this assay. inactive

Returns: the outcome recorded for "C#CCOc1ccc2c(C)cc(=O)oc2c1" in this assay. inactive

Returns: the outcome recorded for CC(C(=O)O)c1ccc(N2Cc3ccccc3C2=O)cc1 (stereo not given) in this assay. inactive

Returns: the outcome recorded for "CCN(CC)Cc1cc(Nc2ccnc3cc(Cl)ccc23)ccc1O" in this assay. active

Returns: the outcome recorded for "O=C1C(=O)c2ncccc2-c2cccnc21" in this assay. active

Returns: the outcome recorded for "CCOc1ccc(N=Nc2ccc(N)cc2N)cc1" in this assay. inactive

Returns: the outcome recorded for Nc1c(Br)cc(Br)cc1CNC1CCC(O)CC1 (stereo not given) in this assay. inactive

Returns: the outcome recorded for "CC1=C(/C=C/C(C)=C/C=C/C(C)=C/C=C/C=C(C)/C=C/C=C(C)/C=C/C2=C(C)C(=O)CCC2(C)C)C(C)(C)CCC1=O" in this assay. inactive

Returns: the outcome recorded for "CC1(C)S[C@@H]2[C@H](NC(=O)[C@@H](NC(=O)N3CCNC3=O)c3ccccc3)C(=O)N2[C@H]1C(=O)O" in this assay. inactive

Returns: the outcome recorded for CC1(C)C(C=C(Cl)Cl)C1C(=O)OCc1cccc(Oc2ccccc2)c1 (stereo not given) in this assay. inactive

Returns: the outcome recorded for "COCC(=O)Nc1cc(Sc2ccccc2)ccc1N=C(NC(=O)OC)NC(=O)OC" in this assay. inactive

Returns: the outcome recorded for "CC1=C(/C=C/C(C)=C/C=C/C(C)=C/C=C/C=C(C)/C=C/C=C(C)/C=C/C2=C(C)CCCC2(C)C)C(C)(C)CCC1" in this assay. inactive

Returns: the outcome recorded for "Clc1cc(Cl)c(OCC#CI)cc1Cl" in this assay. active

Returns: the outcome recorded for CC(=O)Oc1c(C)cc(OCC(O)CNC(C)C)c(C)c1C (stereo not given) in this assay. inactive

Returns: the outcome recorded for "CC[C@@]1(O)C(=O)OCc2c1cc1n(c2=O)Cc2cc3c([N+](=O)[O-])cccc3nc2-1" in this assay. active

Returns: the outcome recorded for "C[C@H]1C[C@H]2[C@@H]3CCC4=CC(=O)C=C[C@]4(C)[C@@]3(F)[C@@H](O)C[C@]2(C)[C@@]1(O)C(=O)CO" in this assay. inactive

Returns: the outcome recorded for C[C@@H]1CCC2[C@@H](C)[C@@H](O)O[C@@H]3O[C@@]4(C)CC[C@@H]1[C@@]23OO4 (stereo not given in full) in this assay. active

Returns: the outcome recorded for "O=C(O)CN(CCN(CC(=O)O)CC(=O)O)CC(=O)O" in this assay. inactive

Returns: the outcome recorded for "CCCCC(=O)O[C@]1(C(=O)CO)[C@H](C)C[C@H]2[C@@H]3CCC4=CC(=O)C=C[C@]4(C)[C@@]3(F)[C@@H](O)C[C@@]21C" in this assay. inactive

Returns: the outcome recorded for "CCOc1ccc2c(c1)C(C)=CC(C)(C)N2" in this assay. inactive

Returns: the outcome recorded for "O=S(=O)(O)c1ccc2c(N=Nc3ccc(S(=O)(=O)O)c4ccccc34)c(O)c(S(=O)(=O)O)cc2c1" in this assay. inactive

Returns: the outcome recorded for "CCOC(=O)C1=C(C)NC(C)=C(C(=O)OCC)C1c1ccccc1C=CC(=O)OC(C)(C)C" in this assay. active

Returns: the outcome recorded for COC(C(=O)C(O)C(C)O)C1Cc2cc3cc(OC4CC(OC5CC(O)C(O)C(C)O5)C(O)C(C)O4)c(C)c(O)c3c(O)c2C(=O)C1OC1CC(OC2CC(OC3CC(C)(O)C(O)C(C)O3)C(O)C(C)O2)C(O)C(C)O1 (stereo not given) in this assay. active

Returns: the outcome recorded for "C#C[C@]1(O)CC[C@H]2[C@@H]3CCC4=CCCC[C@@H]4[C@H]3C(=C)C[C@@]21CC" in this assay. inactive

Returns: the outcome recorded for "O=C(O)c1cc(=O)c2c3nc4ccccc4oc-3cc(=O)c2[nH]1" in this assay. inactive

Returns: the outcome recorded for CC(NNC(=O)c1ccccc1)c1ccccc1 (stereo not given) in this assay. inactive

Returns: the outcome recorded for "CCCCCCCCCCCCCCCC(=O)OCC(COC(=O)CCCCCCCCCCCCCCC)OC(=O)CCCCCCCCCCCCCCC" in this assay. inactive

Returns: the outcome recorded for "C=CCSSSCC=C" in this assay. inactive

Returns: the outcome recorded for CC(O)CO (stereo not given) in this assay. inactive

Returns: the outcome recorded for "C=C1C(=CC=C2CCC[C@@]3(C)[C@@H]2CC[C@H]3[C@H](C)CCCC(C)C)C[C@@H](O)C[C@@H]1O" in this assay. inactive

Returns: the outcome recorded for "O=C(Nc1cccc(C(F)(F)F)c1)c1cc(Br)cc(Br)c1O" in this assay. active

Returns: the outcome recorded for CCCC(=O)Nc1ncnc2c1ncn2C1OC2COP(=O)(O)OC2C1OC(=O)CCC (stereo not given) in this assay. inactive

Returns: the outcome recorded for "COC(F)(F)C(Cl)Cl" in this assay. inactive

Returns: the outcome recorded for "O=C1CSC2(CCN(CCCN3c4ccccc4Sc4ccc(Cl)cc43)CC2)N1" in this assay. active

Returns: the outcome recorded for "COC(=O)CCC(=O)CN" in this assay. inactive

Returns: the outcome recorded for "CO[C@H]1C[C@@H]2CC[C@@H](C)[C@@](O)(O2)C(=O)C(=O)N2CCCC[C@H]2C(=O)O[C@H]([C@H](C)C[C@@H]2CC[C@@H](OCCO)[C@H](OC)C2)CC(=O)[C@H](C)/C=C(\C)[C@@H](O)[C@@H](OC)C(=O)[C@H](C)C[C@H](C)/C=C/C=C/C=C/1C" in this assay. active

Returns: the outcome recorded for "Cc1ccccc1" in this assay. inactive

Returns: the outcome recorded for "O=CCCCC=O" in this assay. inactive

Returns: the outcome recorded for CCC(=O)NCCC1CCc2ccc3c(c21)CCO3 (stereo not given) in this assay. inactive

Returns: the outcome recorded for CCCCC(C)(O)C/C=C/[C@H]1[C@H](O)CC(=O)[C@@H]1CCCCCCC(=O)OC (stereo not given in full) in this assay. inactive

###

I'd appreciate it if you could supply max response values for the items below.
Test system: HaCat
Assay: Cytotoxic Profiling of Annotated Libraries Using Quantitative High-Throughput Screening (AID 1296008); note: % is set by controls: 0 for no effect and ±100 for the full control effect; nearly all actives have a fitted effect of over 60% in size
Settings: Five cell lines viability, CellTiter-Glo ATP luminescence, 48-72 h; active compounds read low
Records with an inconclusive call do not appear.
Kindly answer with a numeric value in %, unit omitted.

Reported max response of CC(=O)OCCC(C)CCC1C(C)(O)CCC2C(C)(C)CCCC21C (centres undefined) : -0.371

Reported max response of CCC(C)(O)C(O)C(=O)OCc1ccc(O[C@@H]2O[C@H](CO)[C@@H](O)[C@H](O)[C@H]2O)cc1 (some centres undefined) : -0.484

Reported max response of "C/C=C(\C)C(=O)O[C@H]1[C@@H](O[C@]2(COC(=O)CC(C)C)O[C@H](COC(=O)C(C)C)[C@@H](OC(C)=O)[C@@H]2O)O[C@H](COC(C)=O)[C@@H](O)[C@@H]1O" : 0.832

Reported max response of CC1(C)CCCC2(C)C1C(O)C=C(CO)C2(O)C(=O)O (centres undefined) : -13.1

Reported max response of "CO/N=C(/C(=O)N[C@@H]1C(=O)N2C(C(=O)O)=C(CSC(=O)c3ccco3)CS[C@H]12)c1csc(N)n1" : 4.84

Reported max response of CC(C)(O)C1CC=C(C(=O)OCC2OC(Oc3c(O)cc(C(=O)O)cc3O)C(O)C(O)C2O)CC1 (centres undefined) : -2.95

Reported max response of "OC[C@H]1O[C@@H](Oc2ccc(O)c3cccc(O)c23)[C@H](O)[C@@H](O)[C@@H]1O" : -1.01

Reported max response of "CCOC(=O)Nc1nc2ccccc2[nH]1" : -2.18

Reported max response of "Nc1nonc1C(=Nc1ccc(F)c(Cl)c1)NO" : -3.71

Reported max response of C[C@@H]1CC[C@]2(C(=O)O)CC[C@]3(C(=O)O)C(=CCC4[C@@]5(C)CC[C@H](O[C@@H]6O[C@@H](C)[C@H](O[C@@H]7O[C@H](CO)[C@@H](O)[C@H](O)[C@H]7O)[C@@H](O)[C@H]6O)C(C)(C)C5CC[C@]43C)C2[C@H]1C (some centres undefined) : -0.856

Reported max response of "CC(=O)O[C@H]1CC[C@@]2(CI)C(=CC[C@@H]3[C@@H]2CC[C@]2(C)[C@@H]([C@H](C)CCCC(C)C)CC[C@@H]32)C1" : 4.89

Reported max response of "CC[C@H]1OC(=O)[C@H](C)[C@@H](O[C@H]2C[C@@](C)(OC)[C@@H](O)[C@H](C)O2)[C@H](C)[C@@H](O[C@@H]2O[C@H](C)C[C@H](N(C)C)[C@H]2O)[C@@](C)(O)C[C@@H](C)[C@@H]2N[C@@H](COCCOC)OC([C@H]2C)[C@]1(C)O" : -20.8

Reported max response of COC1CC(OC2CCC3(C)C(=CCC4C3CCC3(C)C(C(C)O)CCC43O)C2)OC(C)C1OC1OC(C)C(OC2OC(COC3OC(COC4OC(CO)C(O)C(O)C4O)C(O)C(O)C3O)C(O)C(O)C2O)C(OC)C1O (centres undefined) : -1.65

Reported max response of "COc1cccc2c1CCC[C@H]2CN(C)CCc1ccc2ccoc2c1" : 3.47
